Overview of recorded IC50 for various molecules
# system-tested: Lp-PLA2 in human plasma (Homo sapiens, UniProt Q13093)
# Construct: This assay may detect the activity of Lp-PLA2 in human plasma; from tissue; host or cells: pooled human plasma
# Sequence (Q13093 22-441): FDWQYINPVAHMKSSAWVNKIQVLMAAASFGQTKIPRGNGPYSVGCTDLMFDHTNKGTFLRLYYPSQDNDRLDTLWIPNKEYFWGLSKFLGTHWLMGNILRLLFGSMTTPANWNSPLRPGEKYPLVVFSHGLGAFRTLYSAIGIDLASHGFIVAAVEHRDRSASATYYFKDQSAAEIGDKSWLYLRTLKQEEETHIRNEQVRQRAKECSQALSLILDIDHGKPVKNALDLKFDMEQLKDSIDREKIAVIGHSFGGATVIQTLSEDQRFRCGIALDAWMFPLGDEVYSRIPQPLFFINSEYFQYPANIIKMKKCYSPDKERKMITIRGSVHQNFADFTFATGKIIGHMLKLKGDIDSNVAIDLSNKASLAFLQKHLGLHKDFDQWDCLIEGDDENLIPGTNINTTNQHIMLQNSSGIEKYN
# experiment-description: Lp-PLA2 human plasma assay (Thio-PAF assay)
# Format: biochemical
# condition-context: pooled human plasma, 2-thio-PAF substrate; read-out: pIC50 in the thio-PAF assay (converted)
Counter-ions that a name gives are not always drawn.

Completed entries (count: 8):
INSERT INTO measurements (molecule, value_measured) VALUES
  ('CN1CCn2c1cc(OCc1ccc(Oc3ccc(C#N)c(F)c3)c(F)c1)nc2=O', '≤ 1000 nM'),
  ('CN1CCn2c1cc(OCc1ccc(Oc3ccc(Cl)c(C(F)(F)F)c3)c(C#N)c1)nc2=O [Example 101, trifluoroacetic acid salt]', '≤ 100 nM'),
  ('N#Cc1cc(COc2cc3n(c(=O)n2)CCN3)ccc1Oc1ccc(C#N)c(C(F)(F)F)c1', '≤ 100 nM'),
  ('CN1CCn2c1cc(OCc1cc(F)c(Oc3cccc(C#N)c3)c(F)c1)nc2=O', '≤ 1000 nM'),
  ('CN1CCn2c1cc(OCc1ccc(Oc3ccc(F)c(Cl)c3)c(F)c1)nc2=O', '≤ 1000 nM'),
  ('CN1CCn2c1cc(OCc1ccc(Oc3ccc(C#N)c(Cl)c3)c(F)c1)nc2=O', '≤ 100 nM'),
  ('CN1CCn2c1cc(OCc1ccc(Oc3ccc(F)c(C(F)(F)F)c3)c(C#N)c1)nc2=O [Example E44, trifluoroacetic acid salt]', '≤ 100 nM'),
  ('CN1CCn2c1cc(OCc1ccc(Oc3ccc(Br)c(F)c3)c(C#N)c1)nc2=O', '≤ 1000 nM');

Fill blank: measured IC50 of the molecule "CN1CCn2c1cc(OCc1ccc(Oc3cc(F)c(F)c(F)c3)c(F)c1)nc2=O" is ____.
≤ 1000 nM

Fill blank: measured IC50 of the molecule "CN1CCn2c1cc(OCc1ccc(F)c(C#N)c1)nc2=O" is ____.
≤ 1000 nM

Fill blank: measured IC50 of the molecule "CN1CCn2c1cc(OCc1ccc(Oc3ccc(Cl)c(C#N)c3)c(F)c1)nc2=O" is ____.
≤ 100 nM

Fill blank: measured IC50 of the molecule "CN1CCn2c1cc(OCc1ccc(Oc3cc(F)cc(F)c3)c(C#N)c1)nc2=O" is ____.
≤ 1000 nM

Fill blank: measured IC50 of the molecule "CN1CCn2c1cc(OCc1ccc(Oc3ccc(F)c(C#N)c3)c(F)c1)nc2=O" is ____.
≤ 1000 nM

All figures here come from patent US8975400B2.
